Test: Log P by HPLC on reversed phase columns (EEC directive 79/831 Annex V.A8; methods [a], [b], [c])
Type: physicochemical
Description: Measurement of Log P values was performed according to EEC directive 79/831 Annex V.A8 by HPLC (High Performance Liquid Chromatography) on reversed phase columns with the following methods: • ^[a] Log P value is determined by measurement of LC-UV, in an acidic range, with 0.1% formic acid in water and acetonitrile as eluent (linear gradient from 10% acetonitrile to 95% acetonitrile). • ^[b] […]
Give measured LogP for each item. Keep answers brief.

N#Cc1cncn1CC(O)(c1cc(F)cc(Cl)c1Cl)C1(F)CC1 (centres unmarked) | 2.49^[a]
N#Cc1cncn1CC(O)(c1cc(Cl)cc(Cl)c1Cl)C1(F)CC1 (centres unmarked) | 2.66^[a]
C[Si](C)(CCC(O)(Cn1cncc1C#N)C1(Cl)CC1)c1ccccc1 (centres unmarked) | 3.70^[a]
CC(O)(Cn1cncc1Cl)c1ccc(Oc2ccc(C(F)(F)F)cc2)cc1 (centres unmarked) | 2.51^[a]
N#Cc1cncn1CC(O)c1cnc(Oc2ccc(Br)cc2)cc1C(F)F (centres unmarked) | 2.43^[a]

Please supply LogP for each of the following items, keeping them in order.
1. N#Cc1cncn1CC(O)(c1cc(Cl)c(Br)cc1Cl)C1(F)CC1 (centres unmarked)
2. N#Cc1cncn1CC(O)(CC1CCCCC1)c1ccc(F)cc1Br (centres unmarked)
3. CC(C)C(O)(Cn1cncc1C#N)C1(F)CC1 (centres unmarked)

Response:
1: 2.86^[a]; 2: 3.78^[a]; 3: 1.78^[a]

Please supply LogP for each of the following items, keeping them in order.
1. CC(C)C(O)(Cn1cncc1C#N)c1ccc(C(F)(F)F)cc1Cl (centres unmarked)
2. N#Cc1cncn1CC(O)c1ccc(Oc2ccc(I)cc2)cc1F (centres unmarked)
3. CC(O)(Cn1cncc1C#N)c1cnc(Oc2ccc(C(F)F)cc2)cc1C(F)(F)F (centres unmarked) [I-234]
4. N#Cc1cncn1CC(O)(c1cc(Cl)cc(Br)c1)C1(F)CC1 (centres unmarked)
5. N#Cc1cncn1CC(O)c1ccc(Oc2ccc(Br)nc2)cc1Cl (centres unmarked)

Response:
1. 3.11^[a]
2. 3.24^[a]
3. 2.94^[a]
4. 2.76^[a]
5. 2.47^[a]

Please supply LogP for each of the following items, keeping them in order.
1. CC(O)(Cn1cncc1Cl)c1ccc(Oc2ccc(Cl)cc2)cc1Cl (centres unmarked)
2. CC(O)(Cn1cncc1Cl)c1ccc(Oc2ccc(Cl)cn2)cc1Cl (centres unmarked)
3. CC(C)(C)CC(O)(Cn1cncc1C#N)c1ccc(F)cc1F (centres unmarked)
4. OC(Cn1cncc1Cl)c1ccc(Oc2ccc(C(F)(F)F)cc2)c(Br)c1 (centres unmarked)
5. CC(O)(Cn1cncc1C#N)c1cnc(Oc2ccc(Br)nc2)cc1C(F)(F)F (centres unmarked)

Response:
["2.86^[a]", "2.28^[a]", "3.06^[a]", "2.75^[a]", "2.58^[a]"]

Please supply LogP for each of the following items, keeping them in order.
1. N#Cc1cncn1CC(O)(c1ccc(Cl)c(F)c1Cl)C1(Cl)CC1 (centres unmarked)
2. N#Cc1cncn1CC(O)(c1cc(Cl)c(Cl)cc1F)C1(Cl)CC1 (centres unmarked)

Response:
["2.64^[a]", "2.80^[a]"]
